# PDI listing for each entry below
# TEST_DETAILS: Particle size and polydispersity index of nanoparticle compositions (Zetasizer Nano ZS)
# Assay type: physicochemical
# ASSAY_SETUP: Table 1A
Output: the number by itself.

> print(dat)
                                   molecule  observed
1  CCCCCCCCCOC(=O)CCCCCCCN(CCO)CCCCCCCCCOC(=O)C(CCCCCC)CCCCCCCC (stereo not shown) [Compound 134]     0.110
2  CCCCCCCCC(CCCCCCCC)OC(=O)CCCCCCCN(CCO)CCCCCC(=O)OC1CCC(CCCCC)CC1 (stereo not shown) [Compound 68]      0.14

[Q] I would be grateful if you could share the reported PDI for CCCCCCCCCOC(=O)CCCCCCCN(CCCCCCCC(=O)OC(CCCCCCCC)CCCCCCCC)CCCNS(C)(=O)=O [Compound 109] .
[A] 0.13

[Q] I would be grateful if you could share the reported PDI for CCCCCCCCC(CCCCCCCC)OC(=O)CCCCCCCN(CCO)CCCC(=O)OCC1CC1CCCCCC (stereo not shown) [Compound 55] .
[A] 0.16

====

# TEST_DETAILS: Pharmacokinetics of lipids in mice
# Format: in vivo
# ASSAY_SETUP: Liver, mouse; read-out: Tmax
REPORTED_METRIC: Tmax (h)
The reply should contain only the number, in h.

> print(dat)
                                   molecule  observed
1  CCCCCCCCCOC(=O)CCCCCCCN(CCO)CCCCCCCC(=O)OC(CCCCCCCC)CCCCCCCC [Compound 18]         1

Now let's try a different one.
[Q] I would be grateful if you could share the reported Tmax for CCCCCCCCCCCOC(=O)CCCCCN(CCO)CCCCCCCC(=O)OC(CCCCCCCC)CCCCCCCC [Compound 25] .
[A] 1

====

# Tested on: IL-6, IP-10
# TEST_DETAILS: Cytokine induction in mice upon intravenous administration
# Format: in vivo
# Parameters: unit not given here
# ASSAY_SETUP: intravenous, 0.5 mpk, 6 hours
REPORTED_METRIC: Cytokine induction IL-6
Output: the number by itself.

// solved cases for Cytokine induction IL-6 follow
> print(dat)
                                   compound  assay.system  observed
1  CCCCCCCCCOC(=O)CCCCCCCN(CCO)CCCCCCCOC(=O)C(CCCCCCCC)CCCCCCCC [Compound 30]   IL-6, IP-10    152.51
2  CCCCCCCCCCCCCCN(CCO)CCCCCCCC(=O)OC(CCCCCCCC)CCCCCCCC [Compound 2]   IL-6, IP-10     70.95
3  CCCCCC/C=C\COC(=O)CCCCCCCN(CCO)CCCCCCCC(=O)OC(CCCCCCCC)CCCCCCCC [Compound 24]   IL-6, IP-10    163.53

Now let's try a different one.
[Q] I would be grateful if you could share the reported Cytokine induction IL-6 for CCCCCCCCCOC(=O)CCCCCCCN(CCCO)CCCCCCCC(=O)OC(CCCCCCCC)CCCCCCCC [Compound 19] .
[A] 285.56

====

# TEST_DETAILS: Encapsulation efficiency of RNA (QUANT-IT RIBOGREEN RNA assay)
# Assay type: physicochemical
# ASSAY_SETUP: Table 1A
REPORTED_METRIC: EE (%)
Respond with the figure and its unit, in that order.

> print(dat)
                                   compound  observed
1  CCCCCCCCC(CCCCCCCC)OC(=O)CCCCCCCN(CCO)CCCC(=O)OC(CCCCC)CCCCCCCC (centres unmarked)    97.54%
2  CCCCCCCCC(CCCCCCCC)OC(=O)CCCCCCCN(CCO)CCCCCC(=O)N(C)CCCCCCCC    91.94%
3  CCCCCCCCC(CCCCCCCC)OC(=O)CCCCCCCN(CCO)CCCCCCCC    95.10%
4  CCCCCCCCC(CCCCCCCC)OC(=O)CCCCCCCN(CCO)CCCCCCCC(=O)OC1CCC(CCCCC)CC1 (centres unmarked)    96.52%

[Q] I would be grateful if you could share the reported EE (%) for CCCCCCCCCC(=O)OC(C)CCCCCCN(CCO)CCCCCCCOC(=O)C(CCCCCCCC)CCCCCCCC (centres unmarked) .
[A] 92.9%
